system: MDA-MB-435 breast cancer cells; test: NCI in vitro anticancer screen, MDA-MB-435 breast cancer; type: cell-based; settings: Homo sapiens, MDA-MB-435, read-out: cytotoxicity GI50, Breast MDA-MB-435
Counter-ions that a name gives are not always drawn.
measurement_name: GI50 (µM)
A number alone suffices; assume µM.

compound	experimental_system	result_number
CCOc1cc2c(cc1O)C(=NOC)C[C@@H]1[C@@H]2CC[C@]2(C)[C@@H](O)CC[C@@H]12 [Compound 16]	MDA-MB-435 breast cancer cells	0.02
CCOc1cc2c(cc1OC(C)=O)C(=O)C[C@@H]1[C@@H]2CC[C@]2(C)[C@@H](OC(C)=O)CC[C@@H]12 [Compound 7]	MDA-MB-435 breast cancer cells	18.4
CCOc1cc2c(cc1O)C(=NN)C[C@@H]1[C@@H]2CC[C@]2(C)[C@@H](O)CC[C@@H]12 [Compound 13]	MDA-MB-435 breast cancer cells	6.5
CCOc1cc2c(cc1O)[C@@H](O)C[C@@H]1[C@@H]2CC[C@]2(C)[C@@H](O)CC[C@@H]12 [Compound 14]	MDA-MB-435 breast cancer cells	5.39
CC(=O)Oc1cc2c(cc1OCC(F)(F)F)[C@H]1CC[C@]3(C)[C@@H](OC(C)=O)CC[C@H]3[C@@H]1CC2=O [Compound 6]	MDA-MB-435 breast cancer cells	26.5

Input line: Tell me measured GI50 for CCOc1cc2c(cc1O)CC[C@@H]1[C@@H]2CC[C@]2(C)C(N)CC[C@@H]12 (stereo partly drawn) [Compound 20, Hydrochloride] please.
Output line: 1.74

###

Below, each entry is listed alongside its reported GI50.
test system: HCT-116 colon cancer cells; experiment: NCI in vitro anticancer screen, HCT-116 colon cancer; type: cell-based; conditions: Homo sapiens, HCT-116, read-out: cytotoxicity GI50, Colon HCT-116
Where a name gives a salt, the structure may show the parent alone.
A number alone suffices; assume nM.

compound	experimental_system	unit_string	result_number
CCOc1cc2c(cc1O)[C@@H](O)C[C@@H]1[C@@H]2CC[C@]2(C)[C@@H](O)CC[C@@H]12 [Compound 14]	HCT-116 colon cancer cells	nM	350
CCOc1cc2c(cc1O)C(=O)C[C@@H]1[C@@H]2CC[C@]2(C)[C@@H](O)CC[C@@H]12 [Compound 10]	HCT-116 colon cancer cells	nM	20

Input line: Tell me measured GI50 for CCOc1cc2c(cc1O)C(=NNS(=O)(=O)c1ccc(C)cc1)C[C@@H]1[C@@H]2CC[C@]2(C)[C@@H](O)CC[C@@H]12 [Compound 15] please.
Output line: 6670

Input line: Tell me measured GI50 for CCOc1cc2c(cc1O)CC[C@@H]1[C@@H]2CC[C@]2(C)C(N)CC[C@@H]12 (stereo partly shown) [Compound 20, Hydrochloride] please.
Output line: 3150

Input line: Tell me measured GI50 for CCOc1cc2c(cc1O)C(=NN)C[C@@H]1[C@@H]2CC[C@]2(C)[C@@H](O)CC[C@@H]12 [Compound 13] please.
Output line: 2120

Input line: Tell me measured GI50 for CCOc1cc2c(cc1OC(C)=O)C(=O)C[C@@H]1[C@@H]2CC[C@]2(C)[C@@H](OC(C)=O)CC[C@@H]12 [Compound 7] please.
Output line: 21100

Input line: Tell me measured GI50 for CC(=O)Oc1cc2c(cc1OCC(F)(F)F)[C@H]1CC[C@]3(C)[C@@H](OC(C)=O)CC[C@H]3[C@@H]1CC2=O [Compound 6] please.
Output line: 3710
